# experimentalTarget: UniProtKB O42275
# Sequence (O42275 whole entry): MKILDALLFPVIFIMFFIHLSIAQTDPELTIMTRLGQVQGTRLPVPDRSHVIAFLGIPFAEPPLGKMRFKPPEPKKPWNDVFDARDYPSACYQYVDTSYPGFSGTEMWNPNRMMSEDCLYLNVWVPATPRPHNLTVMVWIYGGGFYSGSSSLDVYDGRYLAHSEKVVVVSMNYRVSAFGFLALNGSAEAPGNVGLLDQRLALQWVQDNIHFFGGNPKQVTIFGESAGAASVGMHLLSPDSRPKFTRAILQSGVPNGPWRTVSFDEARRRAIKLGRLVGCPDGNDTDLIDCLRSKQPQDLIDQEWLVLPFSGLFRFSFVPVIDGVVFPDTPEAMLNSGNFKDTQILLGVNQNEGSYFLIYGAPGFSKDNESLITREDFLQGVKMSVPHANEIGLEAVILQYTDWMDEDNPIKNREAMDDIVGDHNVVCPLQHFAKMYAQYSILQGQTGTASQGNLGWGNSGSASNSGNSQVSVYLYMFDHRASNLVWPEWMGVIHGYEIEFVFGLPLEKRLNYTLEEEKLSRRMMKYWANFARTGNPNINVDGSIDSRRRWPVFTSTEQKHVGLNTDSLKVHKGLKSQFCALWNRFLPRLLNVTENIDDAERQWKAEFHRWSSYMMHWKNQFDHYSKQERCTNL
measurementName: pIC50
# pIC50 is unitless: minus log10 of the molar concentration; print number only

Item O=C(COc1cc(=O)oc2ccccc12)N1CCC(Cc2ccccc2)CC1 ; assay system UniProtKB O42275; pIC50 reported as 5.47

Sample O=C(CCCOc1cc(=O)oc2ccccc12)N1CCC(Cc2ccccc2)CC1 , system: UniProtKB O42275. Its pIC50 is 5.10

---

Field: Ratio IC50. Provide a value for each of the molecules that follow.
# assayInfo: Selectivity ratio of IC50 for equine serum BChE to IC50 for electric eel AChE

The recorded Ratio IC50 for entry O=C(COc1cc(=O)oc2ccccc12)NC1CCN(Cc2ccccc2)CC1 equals 37

Given item O=C(COc1cc(=O)oc2ccccc12)N1CCN(c2ccc(Cl)c(Cl)c2)CC1 , the value recorded as its Ratio IC50 is 34

# Ratio IC50 of O=C(COc1cc(=O)oc2ccccc12)N1CCN(c2ccccc2)CC1 = 34

Record O=C(COc1cc(=O)oc2ccccc12)N1CCN(c2ccc(F)cc2)CC1 , field Ratio IC50: 34

Source of measurements: ChEMBL document CHEMBL2390863
